The reader will find reported solubility kinetic values listed item by item below.
- study conditions: buffer; pH 7.4; 200.0 µM

compound: CC(=O)C1=C(c2ccccc2)NC(=O)NC1c1ccc(O)c(Cl)c1 (stereo not given)
assay value: > 51.4 µg/mL
//
compound: COCCCN=CC1=C(O)CC(c2ccccc2)CC1=O (stereo not given)
assay value: > 43.1 µg/mL
//
compound: NC1C2CN3CCN(C2)CC1(c1ccccc1)C3 (stereo not given)
assay value: > 36.5 µg/mL
//
compound: O=C(CNS(=O)(=O)c1ccccc1)Nc1ccc(F)cc1F
assay value: > 48.9 µg/mL
//
compound: CCOc1ccccc1NC(=O)c1ccc(OCC(=O)N2CCOCC2)c(OC)c1
assay value: > 62.2 µg/mL
//
compound: Cc1cc2oc(=O)cc(CN3CCOCC3)c2cc1O
assay value: > 41.3 µg/mL
//
compound: CC(=O)N(C)c1ccc(N=Cc2c(O)ccc3ccccc23)cc1
assay value: > 47.8 µg/mL
//
compound: CN(C)S(=O)(=O)c1ccc(C(=O)OCC2COC(C)(C)O2)cc1 (stereo not given)
assay value: 48.6 µg/mL

Form field solubility kinetic, entry `O=C(NC(=S)Nc1ccc(F)c(Cl)c1)C1CC1` : 2.3 µg/mL

Form: compound = `Cc1ccc(NC(=O)Cc2ccsc2)cc1Cl` ; solubility kinetic = 4.6 µg/mL

* * *

- study conditions: buffer; pH 7.4; 200.0 µM
Readings of solubility kinetic for the listed compounds

Please review the following examples before continuing.
compound: COC(=O)c1ccc(N=C2SCC(=O)N2C)cc1
solubility kinetic: > 39.6 µg/mL
--
compound: CN(CC(=O)Nc1ccc(F)cc1[N+](=O)[O-])C1CCS(=O)(=O)C1 (stereo not given)
solubility kinetic: > 51.8 µg/mL
--
compound: O=C(O)C1C2CCC(C2)C1C(=O)N1CCCC1 (stereo not given)
solubility kinetic: > 35.6 µg/mL
--
compound: Nc1nc(SCC(=O)Nc2cccc([N+](=O)[O-])c2)n[nH]1
solubility kinetic: > 44.1 µg/mL

Lab note: measured solubility kinetic of Cc1cccc(NC(=O)C(C)Sc2nc3nc(C)cc(C)n3n2)c1 (stereo not given) was > 51.2 µg/mL

In plain terms, `Cc1ccc(C(=O)OCC(=O)NC2CCCCC2)o1` has a documented solubility kinetic of > 39.8 µg/mL

Memo: `CCOC(=O)c1cc(C)sc1/N=C/C1C(=O)NC(=S)NC1=O` , reported solubility kinetic: 4.7 µg/mL

solubility kinetic measured on Cc1cc(SC(C)C(=O)O)nc2ccccc12 (stereo not given) = > 37.1 µg/mL

Measured solubility kinetic of `COCCNC(=S)Nc1ccccc1[N+](=O)[O-]` : > 38.3 µg/mL

So, Cc1ccccc1C(=O)N1CCc2c([nH]c3ccccc23)C1C(F)(F)F (stereo not given) ? Its solubility kinetic was < 0.4 µg/mL

Given item `Cc1ccc(C)c(C(=O)CN2C(=O)c3ccccc3C2=O)c1` , the value recorded as its solubility kinetic is 0.9 µg/mL

Form: compound = CC(=O)c1ccc(C(=O)N2CCCC(Nc3ccccc3)C2)s1 (stereo not given) ; solubility kinetic = 41.2 µg/mL

Note to self: solubility kinetic recorded for `Nc1cccc(C(=O)NCCNC(=O)c2cccc(N)c2)c1` was > 44.8 µg/mL

The compound identified as Cc1ccc(C2C(N)C(=O)N2c2ccc(C)cc2)cc1 (stereo not given) registered its solubility kinetic at > 40 µg/mL

solubility kinetic in this record for `Cc1cccc(NC(=S)Nc2ccccn2)c1` : 1.6 µg/mL

Looking up CN1C(=O)CC(c2ccccc2)Nc2ccccc21.Cl (stereo not given) , I see its solubility kinetic listed as > 43.3 µg/mL

Measured solubility kinetic, `CCCCNC(=S)Nc1ccc(Oc2ccccc2)cc1` : 6.5 µg/mL

Looking up `O=C1CCN(S(=O)(=O)c2ccc(Cl)cc2)CCN1` , I found its solubility kinetic recorded as > 43.3 µg/mL

Briefly, solubility kinetic measured for `Cn1c(=O)c2c(nc(SCC(=O)N3CCOCC3)n2C)n(C)c1=O` : > 53 µg/mL

The reported solubility kinetic of the compound `CCOC(=O)C1=C(C)NC(C)=C(C(=O)OCC)C1c1cccc(C)n1` was 5.1 µg/mL

// recorded solubility kinetic for `NC(=O)[C@@H]1CCCN1Cc1nc(Cc2ccccc2F)no1` : > 45.6 µg/mL

compound `COc1cc(C(=O)NCCOc2ccccc2)cc(OC)c1OC` , solubility kinetic observed: > 49.7 µg/mL

Entry COc1ccc(C2Nc3ccccc3C(=O)N2Cc2ccccc2)cc1OC (stereo not given) — recorded solubility kinetic = < 0.4 µg/mL

* * *

Recorded measurements of solubility kinetic, one per entry
- study conditions: buffer; pH 7.4; 200.0 µM

Example entries and their recorded answers appear below.
compound: CC(=O)C1=C(c2ccccc2)NC(=O)NC1c1ccccc1 (stereo unspecified)
solubility kinetic: > 43.9 µg/mL
--
compound: CN1CCN(CC(=O)NC(=O)NC2CCCCC2)CC1
solubility kinetic: > 42.4 µg/mL
--
compound: COc1ccc(C)cc1NC(=S)NC12CN3CN(CN(C3)C1)C2
solubility kinetic: > 50 µg/mL
--
compound: CCOC(=O)NC(C(Cl)(Cl)Cl)S(=O)(=O)c1ccccc1 (stereo unspecified)
solubility kinetic: > 54.1 µg/mL

solubility kinetic for `O=C(O)c1cc(-c2ccc(Cl)c(Cl)c2)n(-c2ccccc2)n1` is > 50 µg/mL

For reference, reported solubility kinetic for `COc1ccc(-c2onc(C)c2-c2cscn2)c(O)c1` stands at > 43.2 µg/mL

Value of solubility kinetic reported for the compound `Cc1ccc(C)c(NC(=S)N2CCCC2)c1` is > 35.2 µg/mL

Just so you know, measured solubility kinetic for `COc1ccccc1NC(=O)N1CCN(C)CC1` came out at 30.8 µg/mL

The recorded solubility kinetic for entry `Cc1ccc(CNS(=O)(=O)c2ccccc2[N+](=O)[O-])cc1` equals 38.7 µg/mL

// `CN(C)c1c(F)cc(C(=O)NCc2ccccc2)cc1F` : solubility kinetic value = 36 µg/mL

* * *

- study conditions: buffer; pH 7.4; 200.0 µM
compounds and their reported solubility kinetic

compound string: CCS(=O)(=O)Nc1ccccc1C(N)=O
solubility kinetic: > 34.2 µg/mL
//
compound string: O=c1[nH]cnc2onc(-c3ccc(F)cc3)c12
solubility kinetic: > 34.7 µg/mL
//
compound string: O=C(CNS(=O)(=O)c1cccs1)N1CCCCC1
solubility kinetic: > 43.3 µg/mL

Note: attention shifts to another entry.
Lab note: `O=C(COC(=O)Cc1ccsc1)Nc1cccc(F)c1` gave solubility kinetic of > 44 µg/mL

* * *

- study conditions: buffer; pH 7.4; 200.0 µM
Measured solubility kinetic by item

compound string: O=C(Nc1ccsc1C(=O)O)c1ccccc1
measurement name: solubility kinetic
assay value: > 37.1 µg/mL
--
compound string: Cn1ccsc1=NC(=O)c1cccc(OC(F)F)c1
measurement name: solubility kinetic
assay value: > 42.6 µg/mL

The recorded solubility kinetic for `Cc1onc(-c2ccccc2)c1C(=O)N1CCCC1` is > 38.4 µg/mL

* * *

Listing of entries alongside the reported solubility kinetic.
- study conditions: buffer; pH 7.4; 200.0 µM

Solved cases below.
compound string: COc1ccc(-c2c(C)nn(-c3ccccc3)c2NC(C)=O)cc1OC
solubility kinetic: > 52.7 µg/mL
//
compound string: CCN(CC)CCNC(=O)/C(=N\O)c1ccccn1
solubility kinetic: > 39.6 µg/mL
//
compound string: N#CC1=C(S)N(c2ccc(F)cc2)C2(CCCCC2)NC1=O
solubility kinetic: > 47.6 µg/mL

What the record says about `Cc1ccccc1NC(=O)NCCCN1CCCC1=O` : solubility kinetic is > 41.3 µg/mL

Measured solubility kinetic, `Cc1c(NC(=O)COC(=O)c2cccn2C)c(=O)n(-c2ccccc2)n1C` : > 55.3 µg/mL

`Cl.Clc1ccccc1CN1CCNCC1` has a reported solubility kinetic of > 37.1 µg/mL

Input `CCN(C(=O)CSc1cccc[n+]1[O-])C1CCCCC1` . Output solubility kinetic: > 44.2 µg/mL

* * *

- study conditions: buffer; pH 7.4; 200.0 µM
measurement name: solubility kinetic (µg/mL)
All answers are understood in µg/mL, so give the number only.

Check out these entries, answers already filled in.
compound: CN(C)C(=O)c1cc(C(=O)c2ccccc2F)c[nH]1
measurement name: solubility kinetic
assay value: 38.9
//
compound: O=C(NC1CCCCC1)C1CC(=O)N(c2ccccc2)C1 (stereo not drawn)
measurement name: solubility kinetic
assay value: 38.5
//
compound: Cc1ccc(OC(C)C(=O)Nc2ncc(Cl)cc2Cl)c([N+](=O)[O-])n1 (stereo not drawn)
measurement name: solubility kinetic
assay value: 8.9
//
compound: c1ccc2cc(CNCc3cccc4ccccc34)ccc2c1
measurement name: solubility kinetic
assay value: 4.1
//
compound: CCN(Cc1ccncc1)Cc1c(O)ccc2ccccc12
measurement name: solubility kinetic
assay value: 31.1
//
compound: CNc1ccc(Br)cc1C(O)c1ccccc1 (stereo not drawn)
measurement name: solubility kinetic
assay value: 34.7
//
compound: O=c1[nH]c2ccccc2c2oc(CCl)nc12
measurement name: solubility kinetic
assay value: 12.5
//
compound: CN(Cc1nc2ccccc2c(=O)[nH]1)C(=O)c1cc2c(s1)CCCCC2
measurement name: solubility kinetic
assay value: 4.8

Lab note: next compound to report on.
Query S=C(Nc1ccccc1Cl)N1CCC(c2ccccc2)C1 (stereo not drawn) yields solubility kinetic of 17.9
